# TEST_SUMMARY: log P by HPLC on reversed-phase columns (EEC Directive 79/831 Annex V.A8)
# Assay type: physicochemical
# PARTICULARS: reversed-phase C18 HPLC column, pH 2.7, HPLC reversed-phase C18, acidic range pH 2.7 (HCOOH); only or first value of the cell; read-out: log P
VALUE_KIND: chromatographic logP
Reply with just the number.

Cc1cc(C#N)cc(C(=O)NCc2cccc(OC(F)F)c2)c1NC(=O)c1cc(Cn2nnc(C(F)(F)F)n2)nn1-c1ccccc1Cl
3.67
Cc1cc(C#N)cc(C(=O)NCc2ccccc2)c1NC(=O)c1cc(Cn2nnc(C(F)(F)F)n2)nn1-c1ccccc1Cl
3.77
Cc1cc(Cl)cc(C(=O)NCc2cccc(-c3ccccc3)n2)c1NC(=O)c1cc(Cn2nnc(C(F)(F)F)n2)nn1-c1ncccc1Cl
4.27
Cc1cc(C#N)cc(C(=O)NCc2ccccc2OC(F)(F)F)c1NC(=O)c1cc(Cn2nnc(C(F)(F)F)n2)nn1-c1c(Cl)cccc1Cl
4.13
Cc1cc(C#N)cc(C(=O)N[C@@H]2CCOC2=O)c1NC(=O)c1cc(Cn2nnc(C(F)(F)C(F)(F)F)n2)nn1-c1ncccc1Cl
2.9

Problem: Form field: reported chromatographic logP of Cc1cc(Cl)cc(C(=O)NC(C)c2ccc(OC(F)(F)F)cc2)c1NC(=O)c1cc(Cn2nnc(C(F)(F)F)n2)nn1-c1ncccc1Cl (stereo not drawn)
Solution: 4.52
